B1: LINE1-full (parent)
chain: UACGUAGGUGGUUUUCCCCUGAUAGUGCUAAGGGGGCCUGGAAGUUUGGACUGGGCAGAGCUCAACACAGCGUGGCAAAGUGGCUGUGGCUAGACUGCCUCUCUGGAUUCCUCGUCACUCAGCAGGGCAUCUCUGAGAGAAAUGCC

Variants of: B1
Experiment: self-cleavage, relative activity (ratio to wild type); higher = more cleavage; in vitro, sequencing; the parent is a self-cleaving ribozyme
Record True whenever self-cleavage is at 0.8 or higher; record False when lower.

variant_key	category_label
A50G A138C	True
A69U U85A	False
U73A U119C	True
A31G A121G	True
C51U U100C	True
A78G U91A	False
U62C G125A	False
A24U U39C	True
U12A U104A	True
G36U A78G	True
C95A U115C	False
U29A A124C	True
U104G C113U	True
C95U G135A	False
A57U A69U	False
G21U A79G	True
C37G A141G	True
C71U C146U	False
C28A A79U	True
G72A A121G	True
C98A A140G	False
G72A U100A	False
